# experiment: chemical genetic growth profiling, strain panel (AID 1159580);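 also: tested at 20 µM; growth read once vehicle control cultures reached saturation at 30 °C; 1 = growth at the plate median or of vehicle wells; lower values mean less growth of the strain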
# test-parameters: S. cerevisiae deletion strains, growth OD, locus YNL153C, strain GIM3, active compounds read low
The campaign covered roughly 5,500 compounds. About 2,000 (36%) were called active. Roughly 18% stayed inconclusive and do not appear here. The list shows a part of the results.

>  <molecule>
COC(=O)C1=C(Nc2ccc(Cl)cc2)CSC1

>  <normalized growth>
0.965

$$$$
>  <molecule>
Nc1nc(N)c2nc(-c3ccccc3)c(N)nc2n1

>  <normalized growth>
1

$$$$
>  <molecule>
O=C(O)/C=C(\CC(=O)O)C(=O)O

>  <normalized growth>
1.04

$$$$
>  <molecule>
CCC/C=C/C=C/[C@@H]1C[C@@H](O)[C@@H](O)C(=O)[C@H]1C=O

>  <normalized growth>
1.01

$$$$
>  <molecule>
CN1CCC23CCCC[C@H]2C1Cc1ccc(O)cc13 (stereo partly drawn)

>  <normalized growth>
1.02

$$$$
>  <molecule>
O=C(O)c1nc2cc(Cl)c(Cl)cc2[nH]c1=O

>  <normalized growth>
1.03

$$$$
>  <molecule>
Cc1cc(C(F)(F)F)c(C#N)c(=O)[nH]1

>  <normalized growth>
1

$$$$
>  <molecule>
Cc1cc(NC(=O)Nc2ccc3c(ccn3C)c2)sn1

>  <normalized growth>
1.04

$$$$
>  <molecule>
O=c1[nH]c2cc([N+](=O)[O-])c([N+](=O)[O-])cc2[nH]c1=O

>  <normalized growth>
1.01

$$$$
>  <molecule>
CC[N+]1(C)CCCC(OC(=O)C(O)(c2ccccc2)c2ccccc2)C1 (stereo not drawn)

>  <normalized growth>
0.997

$$$$
>  <molecule>
CC1=NCCc2c1[nH]c1cc(O)ccc21

>  <normalized growth>
1

$$$$
>  <molecule>
CCCN1C[C@H](CSC)C[C@@H]2c3cccc4[nH]cc(c34)C[C@H]21

>  <normalized growth>
0.983

$$$$
>  <molecule>
C#CCOS(=O)OC1CCCCC1Oc1ccc(C(C)(C)C)cc1 (stereo not drawn)

>  <normalized growth>
1.02

$$$$
>  <molecule>
NCCCCNS(=O)(=O)c1cccc2c(Cl)cccc12

>  <normalized growth>
0.993

$$$$
>  <molecule>
NCC(=O)CCC(=O)O

>  <normalized growth>
1

$$$$
>  <molecule>
CC(N)Cc1c[nH]c2ccc(OCc3cccs3)cc12 (stereo not drawn)

>  <normalized growth>
1.02

$$$$
>  <molecule>
CC(=O)CC(c1ccccc1)c1c(O)c2ccccc2oc1=O (stereo not drawn)

>  <normalized growth>
1

$$$$
>  <molecule>
CN(N=O)C(=O)N[C@@H]1[C@@H](O)[C@H](O)[C@@H](CO)O[C@@H]1O

>  <normalized growth>
0.997

$$$$
>  <molecule>
COC(=O)C1=C(C)NC(C)=C(C(=O)OC)C1c1ccccc1[N+](=O)[O-]

>  <normalized growth>
0.939

$$$$
>  <molecule>
CCOC(=O)c1ccc2oc3ccc(O)cc3c(=O)c2c1

>  <normalized growth>
0.973

$$$$
>  <molecule>
N#CC1COc2ccccc2O1 (stereo not drawn)

>  <normalized growth>
0.996

$$$$
>  <molecule>
CC(=O)c1csc(-c2ccc(C(F)(F)F)cc2)n1

>  <normalized growth>
0.954

$$$$
>  <molecule>
CC(=O)N(O)CCCCCNC(=O)CCC(=O)N(O)CCCCCNC(=O)CCC(=O)N(O)CCCCCN

>  <normalized growth>
0.99

$$$$
>  <molecule>
N/C(=N/OS(=O)(=O)c1ccc(Cl)cc1)c1ccc(C(F)(F)F)cc1

>  <normalized growth>
0.976

$$$$
>  <molecule>
COc1ccc(-c2cc(=O)c3c(OC)cccc3o2)cc1

>  <normalized growth>
1.02

$$$$
>  <molecule>
O=c1[nH]c2cc(Cl)c(Cl)cc2[nH]c1=O

>  <normalized growth>
1.01

$$$$
>  <molecule>
C=CCCCCCCCCCCCC(O)CC(O)CO (stereo not drawn)

>  <normalized growth>
0.979

$$$$
>  <molecule>
COc1ccc(-c2cc(=O)c3ccccc3o2)cc1

>  <normalized growth>
0.615

$$$$
>  <molecule>
CC1=C2C(=CO[C@H](C)[C@H]2C)C(=O)C(C(=O)O)=C1O

>  <normalized growth>
0.988

$$$$
>  <molecule>
O=C1CCc2cc(OCCCCc3nnnn3C3CCCCC3)ccc2N1

>  <normalized growth>
1.01

$$$$
>  <molecule>
COc1cc(NC(=O)NS(=O)(=O)c2ccc(C)cc2)cc(C(F)(F)F)c1

>  <normalized growth>
0.995

$$$$
>  <molecule>
CC1NC(=O)NC1=O (stereo not drawn)

>  <normalized growth>
1.01

$$$$
>  <molecule>
Cc1onc(-c2c(Cl)cccc2Cl)c1C(=O)N1CCN(c2ncccc2C(F)(F)F)CC1

>  <normalized growth>
1

$$$$
>  <molecule>
CCNC(=O)[C@H]1O[C@@H](n2cnc3c(N)nc(NCCc4ccc(CCC(=O)O)cc4)nc32)C(O)[C@H]1O (stereo partly drawn)

>  <normalized growth>
1

$$$$
>  <molecule>
CC(C)=CCc1c2c(c(O)c3c(=O)c(O)c(-c4ccccc4)oc13)C=CC(C)(C)O2

>  <normalized growth>
0.619

$$$$
>  <molecule>
CC(=O)[C@H]1CCC2C3CC=C4C[C@@H](O)CC[C@]4(C)C3CC[C@@]21C (stereo partly drawn)

>  <normalized growth>
0.948

$$$$
>  <molecule>
Nc1ccc(C(=O)O)c(O)c1 (tested in a mixture with another compound)

>  <normalized growth>
1.04

$$$$
>  <molecule>
COC(=O)N1CCN(C(=O)Cc2ccc(Cl)c(Cl)c2)C(CN2CCCC2)C1 (stereo not drawn)

>  <normalized growth>
1

$$$$
>  <molecule>
O=C(/C=C/c1ccccc1)c1ccc(O)cc1

>  <normalized growth>
0.492

$$$$
>  <molecule>
CC(=O)Nc1ccc(O)cc1

>  <normalized growth>
0.998

$$$$
>  <molecule>
CC(=O)Nc1cccc(O)c1

>  <normalized growth>
1.02

$$$$
>  <molecule>
CSc1ccc(C(=O)O)s1

>  <normalized growth>
0.932

$$$$
>  <molecule>
CCN(CC)CCNc1ccc(CO)c2sc3ccccc3c(=O)c12

>  <normalized growth>
0.962

$$$$
>  <molecule>
C=CCCCCCCCCCCCC(O)CC(O)CO (stereo not drawn) (tested in a mixture with another compound)

>  <normalized growth>
0.365

$$$$
>  <molecule>
Cc1cc2cc3c(C)cc(=O)oc3c(C)c2o1

>  <normalized growth>
0.918

$$$$
>  <molecule>
c1ccc(Sc2c(-c3ccccc3)nc3ccccn23)cc1

>  <normalized growth>
0.931

$$$$
>  <molecule>
C=CCc1ccccc1OCC(O)CNC(C)C (stereo not drawn)

>  <normalized growth>
1

$$$$
>  <molecule>
CC(C)(Oc1ccc(Cl)cc1)C(=O)O

>  <normalized growth>
0.979

$$$$
